Reported pKd values follow for various binders
# target.entity: T1, NHERF3_1, Q5T2W1
# T1 sequence (Q5T2W1 4-100, limits assumed, looked up): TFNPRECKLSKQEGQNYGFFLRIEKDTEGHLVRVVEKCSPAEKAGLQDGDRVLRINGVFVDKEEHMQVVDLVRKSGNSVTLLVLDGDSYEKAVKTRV
# assay.notes: holdup assay
# Parameters: key: below the threshold = too weak to quantify, mostly under pKd 3.1 to 4
# condition.notes: plain residues with an end cap or a label only (N-terminal biotin on a linker: ttds)
Reply with just the number.

Take a look at these entries with their results.
{"binder": "SGGKRKETLV [NET1, Q7Z628]", "readout.type": "pKd", "reported.result": 4.35}
{"binder": "PSRDRKETSI [RALBP1, Q15311]", "readout.type": "pKd", "reported.result": 3.68}

The record that follows has no pKd shown yet.
Quote pKd reported for SRSRRRETAL [HPV33-E6, P06427] please.
5.49
